- measurementDescription: qHTS Assay for Lipid Storage Modulators (AID 1519)
- conditionsUsed: Drosophila S3 cells, BODIPY lipid droplet/cell ratio, laser cytometry; measured here: cell count channel max response; cells loaded with oleic acid
Records with an inconclusive call do not appear.
observedProperty: max response (%)

[[record]]
samplesmiles = "COC(=O)c1c(OC)cc2c(c1C)Oc1c(Cl)c(OC(C)=O)c(Cl)c(C)c1C(=O)O2"
outputunit = "%"
recordednumber = 2.97

[[record]]
samplesmiles = "COc1cccc(Nc2ncc3ncc(=O)n(C)c3n2)c1"
outputunit = "%"
recordednumber = 11.1

[[record]]
samplesmiles = "O=C(c1cccc(F)c1)N1CCC2(CCN(Cc3ccncc3)CC2)CC1"
outputunit = "%"
recordednumber = 4.86


###

# Potency annotations
- targetOrTestSystem: Glucocorticoid receptor (Homo sapiens) (UniProt P04150)
- Sequence (P04150 whole entry, looked up): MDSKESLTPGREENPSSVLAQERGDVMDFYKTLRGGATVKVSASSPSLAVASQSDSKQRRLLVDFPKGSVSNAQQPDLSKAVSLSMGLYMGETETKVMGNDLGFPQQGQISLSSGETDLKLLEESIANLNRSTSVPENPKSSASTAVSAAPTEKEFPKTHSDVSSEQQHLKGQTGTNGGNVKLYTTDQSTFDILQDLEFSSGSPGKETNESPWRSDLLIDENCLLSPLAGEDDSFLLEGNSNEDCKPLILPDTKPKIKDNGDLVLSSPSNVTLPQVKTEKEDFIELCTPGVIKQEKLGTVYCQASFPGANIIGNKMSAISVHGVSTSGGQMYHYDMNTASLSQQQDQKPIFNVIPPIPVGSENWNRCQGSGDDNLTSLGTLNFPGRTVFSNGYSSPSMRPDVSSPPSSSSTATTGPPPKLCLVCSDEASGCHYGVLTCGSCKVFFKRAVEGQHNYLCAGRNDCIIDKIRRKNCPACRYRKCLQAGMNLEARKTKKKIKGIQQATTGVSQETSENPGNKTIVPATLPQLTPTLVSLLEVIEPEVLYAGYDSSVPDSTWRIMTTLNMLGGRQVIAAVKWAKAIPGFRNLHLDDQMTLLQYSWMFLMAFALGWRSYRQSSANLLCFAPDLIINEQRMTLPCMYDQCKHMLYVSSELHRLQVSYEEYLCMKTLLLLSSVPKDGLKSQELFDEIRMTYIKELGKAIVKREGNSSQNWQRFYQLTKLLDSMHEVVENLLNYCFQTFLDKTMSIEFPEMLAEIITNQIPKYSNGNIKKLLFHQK
- measurementDescription: GR-EFC Redistribution (AID 451); also: potency is read from the fitted curve at half-maximal effect
- conditionsUsed: CHO-K1 GR-EFC translocation, beta-gal luminescence, 2 h
Active and inactive are the calls of the source. Calls follow the shape of the full dose curve.
observedProperty: Potency

[[record]]
samplesmiles = "COCC(=O)N1CCC2(CC1)CN(c1ccccc1)C2"
targetortestsystem = "Glucocorticoid receptor (Homo sapiens) (UniProt P04150)"
result = "> 46 µM (inactive)"

[[record]]
samplesmiles = "Clc1ccccc1-c1nccc(NCc2ccccc2)n1"
targetortestsystem = "Glucocorticoid receptor (Homo sapiens) (UniProt P04150)"
result = "> 46 µM (inactive)"

[[record]]
samplesmiles = "O=S(=O)(c1ccccc1)N1CCC2(CC1)CN(Cc1ccccc1)C2"
targetortestsystem = "Glucocorticoid receptor (Homo sapiens) (UniProt P04150)"
result = "> 46 µM (inactive)"

[[record]]
samplesmiles = "CN(C)CC/C=C1\\c2ccccc2CSc2ccccc21"
targetortestsystem = "Glucocorticoid receptor (Homo sapiens) (UniProt P04150)"
result = "> 20.6 µM (inactive)"

[[record]]
samplesmiles = "COCC(=O)N1CCC2(CCCN(C(=O)Nc3cccc(C#N)c3)C2)CC1"
targetortestsystem = "Glucocorticoid receptor (Homo sapiens) (UniProt P04150)"
result = "> 46 µM (inactive)"

[[record]]
samplesmiles = "O=C(c1cccc(F)c1)N1CCC2(CC1)CN(c1ccc(-c3ccccc3)cc1)C2"
targetortestsystem = "Glucocorticoid receptor (Homo sapiens) (UniProt P04150)"
result = "> 46 µM (inactive)"

[[record]]
samplesmiles = "O=C(c1ccco1)N1CCC2(CCN(Cc3ccccc3)CC2)CC1"
targetortestsystem = "Glucocorticoid receptor (Homo sapiens) (UniProt P04150)"
result = "> 46 µM (inactive)"

[[record]]
samplesmiles = "Cc1cnc(CNc2nc(-c3cccc(NS(C)(=O)=O)c3)nc3ccccc23)cn1"
targetortestsystem = "Glucocorticoid receptor (Homo sapiens) (UniProt P04150)"
result = "> 46 µM (inactive)"

[[record]]
samplesmiles = "CCNc1ncc2nc(-c3ccc(Cl)cc3)c(=O)n(C)c2n1"
targetortestsystem = "Glucocorticoid receptor (Homo sapiens) (UniProt P04150)"
result = "> 46 µM (inactive)"

[[record]]
samplesmiles = "CCNc1ncc2nc(-c3ccc(OC)cc3)c(=O)n(-c3ccc(OC)cc3)c2n1"
targetortestsystem = "Glucocorticoid receptor (Homo sapiens) (UniProt P04150)"
result = "> 46 µM (inactive)"

[[record]]
samplesmiles = "COc1ccc(-c2nc3cnc(OC)nc3n(C[C@H]3CCCO3)c2=O)cc1"
targetortestsystem = "Glucocorticoid receptor (Homo sapiens) (UniProt P04150)"
result = "> 46 µM (inactive)"

[[record]]
samplesmiles = "C[C@H]1NC(=O)NC1=O"
targetortestsystem = "Glucocorticoid receptor (Homo sapiens) (UniProt P04150)"
result = "> 20.6 µM (inactive)"

[[record]]
samplesmiles = "Cc1ccccc1-c1cc(N2CCNCC2)ncn1"
targetortestsystem = "Glucocorticoid receptor (Homo sapiens) (UniProt P04150)"
result = "> 46 µM (inactive)"

[[record]]
samplesmiles = "CS(=O)(=O)Nc1cccc(-c2nc(-n3ccnc3)c3ccccc3n2)c1"
targetortestsystem = "Glucocorticoid receptor (Homo sapiens) (UniProt P04150)"
result = "> 46 µM (inactive)"

[[record]]
samplesmiles = "Cn1c(=O)c(-c2cc(F)cc(F)c2)nc2cncnc21"
targetortestsystem = "Glucocorticoid receptor (Homo sapiens) (UniProt P04150)"
result = "> 46 µM (inactive)"

[[record]]
samplesmiles = "COc1cccc(Nc2ncc3nc(-c4cccs4)c(=O)n(Cc4cccs4)c3n2)c1"
targetortestsystem = "Glucocorticoid receptor (Homo sapiens) (UniProt P04150)"
result = "> 46 µM (inactive)"

[[record]]
samplesmiles = "COc1ccc(Oc2ncc3nc(-c4cc(F)cc(F)c4)c(=O)n(C[C@H]4CCCO4)c3n2)cc1"
targetortestsystem = "Glucocorticoid receptor (Homo sapiens) (UniProt P04150)"
result = "> 46 µM (inactive)"

[[record]]
samplesmiles = "CC(C)NC(=O)N1CCCC2(CCN(C(=O)c3ccco3)CC2)C1"
targetortestsystem = "Glucocorticoid receptor (Homo sapiens) (UniProt P04150)"
result = "> 46 µM (inactive)"

[[record]]
samplesmiles = "Cc1cnc(CNc2nc(-c3ccc(C(=O)N(C)C)cc3)nc3ccccc23)cn1"
targetortestsystem = "Glucocorticoid receptor (Homo sapiens) (UniProt P04150)"
result = "> 46 µM (inactive)"

[[record]]
samplesmiles = "CN(C)c1ncc2ncc(=O)n(C)c2n1"
targetortestsystem = "Glucocorticoid receptor (Homo sapiens) (UniProt P04150)"
result = "> 46 µM (inactive)"

[[record]]
samplesmiles = "COc1ccc(Oc2ncc3nc(CCc4ccccc4)c(=O)n(C)c3n2)cc1"
targetortestsystem = "Glucocorticoid receptor (Homo sapiens) (UniProt P04150)"
result = "> 46 µM (inactive)"

[[record]]
samplesmiles = "COc1ccc(NC(=O)N2CC[C@@]3(CCCN(S(C)(=O)=O)C3)C2)cc1"
targetortestsystem = "Glucocorticoid receptor (Homo sapiens) (UniProt P04150)"
result = "> 46 µM (inactive)"

[[record]]
samplesmiles = "COc1cccc(-c2nccc(NCc3ccccc3)n2)c1"
targetortestsystem = "Glucocorticoid receptor (Homo sapiens) (UniProt P04150)"
result = "> 46 µM (inactive)"

[[record]]
samplesmiles = "CN(Cc1ccco1)c1ccnc(-c2cccc(C#N)c2)n1"
targetortestsystem = "Glucocorticoid receptor (Homo sapiens) (UniProt P04150)"
result = "> 46 µM (inactive)"

[[record]]
samplesmiles = "COc1cccc(Cn2c(=O)cnc3cnc(OCc4ccccc4)nc32)c1"
targetortestsystem = "Glucocorticoid receptor (Homo sapiens) (UniProt P04150)"
result = "> 46 µM (inactive)"

[[record]]
samplesmiles = "Cc1noc(C)c1-c1ccc2ncnc(NC3CC3)c2c1"
targetortestsystem = "Glucocorticoid receptor (Homo sapiens) (UniProt P04150)"
result = "> 46 µM (inactive)"

[[record]]
samplesmiles = "N#Cc1cccc(NC(=O)N2CCCC3(CCN(C(=O)c4csnn4)CC3)C2)c1"
targetortestsystem = "Glucocorticoid receptor (Homo sapiens) (UniProt P04150)"
result = "> 46 µM (inactive)"

[[record]]
samplesmiles = "c1cncc(-c2ccc3ncnc(N4CCNCC4)c3c2)c1"
targetortestsystem = "Glucocorticoid receptor (Homo sapiens) (UniProt P04150)"
result = "> 46 µM (inactive)"

[[record]]
samplesmiles = "COc1ncc2nc(C)c(=O)n(Cc3cccs3)c2n1"
targetortestsystem = "Glucocorticoid receptor (Homo sapiens) (UniProt P04150)"
result = "> 46 µM (inactive)"

[[record]]
samplesmiles = "O=C(c1csnn1)N1CCC2(CC1)CN(c1ncccn1)C2"
targetortestsystem = "Glucocorticoid receptor (Homo sapiens) (UniProt P04150)"
result = "> 46 µM (inactive)"

[[record]]
samplesmiles = "CN(C)c1ccc(-c2nc(N(C)C)c3ccccc3n2)cc1"
targetortestsystem = "Glucocorticoid receptor (Homo sapiens) (UniProt P04150)"
result = "> 46 µM (inactive)"

[[record]]
samplesmiles = "Cc1cnc(CNc2nc(-c3ccc(N(C)C)cc3)nc3ccccc23)cn1"
targetortestsystem = "Glucocorticoid receptor (Homo sapiens) (UniProt P04150)"
result = "> 46 µM (inactive)"

[[record]]
samplesmiles = "N#Cc1cccc(-c2ccc3ncnc(NCCN4CCOCC4)c3c2)c1"
targetortestsystem = "Glucocorticoid receptor (Homo sapiens) (UniProt P04150)"
result = "> 46 µM (inactive)"

[[record]]
samplesmiles = "O=c1c(-c2cccs2)nc2cnc(Oc3cccc(Cl)c3)nc2n1C[C@H]1CCCO1"
targetortestsystem = "Glucocorticoid receptor (Homo sapiens) (UniProt P04150)"
result = "> 46 µM (inactive)"

[[record]]
samplesmiles = "CS(=O)(=O)Nc1cccc(-c2cc(Nc3ccccc3)ncn2)c1"
targetortestsystem = "Glucocorticoid receptor (Homo sapiens) (UniProt P04150)"
result = "> 46 µM (inactive)"

[[record]]
samplesmiles = "CS(=O)(=O)Nc1cccc(-c2nc(NC3CC3)c3ccccc3n2)c1"
targetortestsystem = "Glucocorticoid receptor (Homo sapiens) (UniProt P04150)"
result = "> 46 µM (inactive)"

[[record]]
samplesmiles = "CS(=O)(=O)N1CCC2(CC1)CN(c1ccc(-c3ccccc3)cc1)C2"
targetortestsystem = "Glucocorticoid receptor (Homo sapiens) (UniProt P04150)"
result = "> 46 µM (inactive)"

[[record]]
samplesmiles = "COc1ccc(C(=O)N2CCC[C@@]3(CCN(Cc4nccs4)C3)C2)cc1"
targetortestsystem = "Glucocorticoid receptor (Homo sapiens) (UniProt P04150)"
result = "> 46 µM (inactive)"

